experiment: hESC survival regulators, cell-based (AID 493140); conditions: human embryonic stem cell survival screen; active compounds read high;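 note: cells exposed to compounds for four days before counting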
Outcome label depends on survival relative to 4: at/above gives 1, below gives 0.

>>> category_label("C[C@@]12C(=O)OC(=O)[C@]1(C)C1CCC2O1")
0
>>> category_label("COc1ccc2c(c1)C(=O)N(CCc1ccc(S(=O)(=O)NC(=O)NC3CCCCC3)cc1)C(=O)C2(C)C")
1
>>> category_label("C[C@@H]1CCC[C@H](C)N1")
1
>>> category_label("CC(C)C[C@H]1C(=O)N2CCC[C@H]2[C@]2(O)O[C@](NC(=O)[C@@H]3C=C4c5cccc6[nH]c(Br)c(c56)C[C@H]4N(C)C3)(C(C)C)C(=O)N12")
1
>>> category_label("Cc1cccc(Nc2cc(Cl)nc(SCC(=O)O)n2)c1C")
1

----------
# tube area decrease per entry
assay: inhibition of endothelial tube formation, primary screen, imaging, VEGF stimulated, CD31 staining, tube area, NPC library (AID 1117340); details: VEGF-stimulated ADSC/ECFC co-culture, at 10 µM, active compounds read high
readout label: tube area decrease (%)

>>> test_value("O=C(O)c1cccc(-c2noc(-c3ccccc3F)n2)c1")
-5.7
>>> test_value("C[C@@]12C(=O)OC(=O)[C@]1(C)C1CCC2O1")
111
>>> test_value("OCCOCCN1CCN(C(c2ccccc2)c2ccc(Cl)cc2)CC1 (stereo unspecified)")
28
>>> test_value("O=C(O)CN(CC(=O)O)Cc1cc2c(-c3ccccc3C(=O)O)c3cc(CN(CC(=O)O)CC(=O)O)c(=O)cc-3oc2cc1O")
19.9
>>> test_value("CC1(C)[C@@H]2CC[C@@]1(C)C(=O)C2")
-4.3
>>> test_value("NS(=O)(=O)c1cc(Cl)c(Cl)c(S(N)(=O)=O)c1")
-7.2
>>> test_value("OC(CCCN1CCCCC1)(c1ccccc1)c1ccccc1")
3.9
>>> test_value("O=C(O)Cn1c(C(=O)Nc2nc(-c3ccccc3Cl)cs2)cc2ccccc21")
47.9
>>> test_value("CC(C)Cn1cnc2c(N)nc3ccccc3c21")
-3.6
>>> test_value("NCCCC(N)(C(=O)O)C(F)F (stereo unspecified)")
-6.3
>>> test_value("COc1cc(C(=O)NCCCCCC(=O)O)cc(OC)c1OC")
12.7
>>> test_value("CN(C)C(=O)C(CCN1CCC(O)(c2ccc(Cl)cc2)CC1)(c1ccccc1)c1ccccc1")
11.7
>>> test_value("C#C[C@]1(OC(C)=O)CC[C@H]2[C@@H]3CCC4=C[C@@H](OC(C)=O)CC[C@@H]4[C@H]3CC[C@@]21C")
-2.9
>>> test_value("O=C1OC(CN2CCOCC2)CN1/N=C/c1ccc([N+](=O)[O-])o1 (stereo unspecified)")
-4.4
>>> test_value("O=C(O)C(S)C(S)C(=O)O (stereo unspecified)")
14
>>> test_value("CCCNC(C)(C)COC(=O)c1ccccc1")
6.5
>>> test_value("O=C(O)c1cc(-c2ccccc2)nc2ccccc12")
1.3
>>> test_value("CCCCCCCCCCCCCCCCCCCCCCO")
-8.1
>>> test_value("O=C1[O][Bi][O]c2ccccc21")
-3.4
>>> test_value("OCCN1CCN(CC/C=C2/c3ccccc3Sc3ccc(C(F)(F)F)cc32)CC1")
88.3
>>> test_value("CC1(c2ccccc2)OC(C(=O)O)=CC1=O (stereo unspecified)")
0.2
>>> test_value("C(=C\\c1ccccc1)/CN1CCN(C(c2ccccc2)c2ccccc2)CC1")
26.3
>>> test_value("O=S(=O)(O)Oc1ccc(C(c2ccc(OS(=O)(=O)O)cc2)c2ccccn2)cc1")
11.8
>>> test_value("CC(CNC1CCCCC1)OC(=O)c1ccccc1 (stereo unspecified)")
19.9
>>> test_value("CCCCOC(=O)c1ccc(O)cc1")
17
>>> test_value("CC[N+](CC)(CC(=O)Nc1c(C)cccc1C)Cc1ccccc1")
-5.6
>>> test_value("CC(O)Cn1cnc2c1c(=O)n(C)c(=O)n2C (stereo unspecified)")
7.5
>>> test_value("CNCCC(Oc1ccccc1OC)c1ccccc1 (stereo unspecified)")
0.4
>>> test_value("CCNC(=O)/C=C/c1cccc(Br)c1")
-15.1
>>> test_value("Clc1ccc(Nc2nnc(Cc3ccncc3)c3ccccc23)cc1")
104
>>> test_value("CN(C)CCN(Cc1ccc(Cl)cc1)c1ccccn1")
-2
>>> test_value("O[C@@H](CNC[C@H](O)[C@H]1CCc2cc(F)ccc2O1)[C@@H]1CCc2cc(F)ccc2O1")
60.9
>>> test_value("COc1ccc(CCN(C)CCCC(C#N)(c2cc(OC)c(OC)c(OC)c2)C(C)C)cc1OC (stereo unspecified)")
6.2
>>> test_value("CN(C)C(=N)N=C(N)N")
-11.5
>>> test_value("CCC1=C[C@@H]2CN(C1)Cc1c([nH]c3ccccc13)[C@@](C(=O)OC)(c1cc3c(cc1OC)N(C)[C@H]1[C@@](O)(C(=O)OC)[C@H](OC(C)=O)[C@]4(CC)C=CCN5CC[C@]31[C@@H]54)C2")
106
>>> test_value("Clc1cc(Cl)c(OCC#CI)cc1Cl")
106
>>> test_value("CCn1c(=O)c2c(nc(C=Cc3ccc(OC)c(OC)c3)n2C)n(CC)c1=O")
14.4
>>> test_value("CCN(CC)C(=O)c1ccc(O)c(OC)c1")
19.7
>>> test_value("O=C(O)C1(C(=O)O)CCC1.[NH2-].[NH2-].[Pt+2]")
55.4
>>> test_value("Cc1ccc(O)cc1")
-11.8
>>> test_value("CCCCOc1cc(C(=O)OCCN(CC)CC)ccc1N")
14.2
>>> test_value("O=C(NCC1CCCCN1)c1cc(OCC(F)(F)F)ccc1OCC(F)(F)F (stereo unspecified)")
-3.2
>>> test_value("NCCCC(O)(P(=O)(O)O)P(=O)(O)O")
-27.4
>>> test_value("CC(=O)[C@H]1CC[C@H]2[C@@H]3CC=C4C[C@@H](O)CC[C@]4(C)[C@H]3CC[C@]12C")
8.7
>>> test_value("O=C(OCCOCCO)c1ccccc1Nc1cccc(C(F)(F)F)c1")
13.5
>>> test_value("CC1(C)[C@@H](OC(=O)CCC(=O)O)CC[C@]2(C)[C@H]3C(=O)C=C4[C@@H]5C[C@@](C)(C(=O)O)CC[C@]5(C)CC[C@@]4(C)[C@]3(C)CC[C@@H]12")
15.3

----------
experiment: CellTiter-Glo luminescent readout of SW480 viability loss, NPC library primary (AID 1117343); conditions: CellTiter-Glo luminescence; at 20 µM (top of the series) unless noted
Active and inactive are the calls of the source.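 Rule for the calls: active = compounds that lower viability of the colon cancer cells in the luminescence readout, with no numeric limit stated; inactive = the rest.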
readout label: viability decrease (inhibition)

>>> test_value("CC1(C)CC1C(=O)NC(=CCCCCSCC(N)C(=O)O)C(=O)O (stereo not given)")
"28.9% (inactive)"
>>> test_value("CC(CN(C)C)C(C)(O)Cc1ccc(Cl)cc1 (stereo not given)")
"-0.8% (inactive)"
>>> test_value("Cc1cc(C(C#N)c2ccc(Cl)cc2)c(Cl)cc1NC(=O)c1cc(I)cc(I)c1O (stereo not given)")
"163% (active)"
>>> test_value("CC(C)(C)CC(C)(C)c1cc(Cc2cc(C(C)(C)CC(C)(C)C)cc(-n3nc4ccccc4n3)c2O)c(O)c(-n2nc3ccccc3n2)c1")
"-54% (inactive)"
>>> test_value("CO[C@H]1O[C@@H]2O[C@@]3(C)CC[C@H]4[C@H](C)CC[C@@H]([C@@H]1C)[C@@]24OO3")
"2.9% (inactive)"
>>> test_value("CN(C)C/C=C(/c1ccc(Br)cc1)c1cccnc1")
"52.1% (active)"
>>> test_value("CCCC(=O)O[C@]1(C(=O)CO)CC[C@H]2[C@@H]3CCC4=CC(=O)CC[C@]4(C)[C@H]3[C@@H](O)C[C@@]21C")
"19.8% (inactive)"
>>> test_value("CC12CCC(CC1)C(C)(C)O2")
"5% (inactive)"
>>> test_value("C/C(=C(\\CCOP(=O)(O)O)SC(=O)c1ccccc1)N(C=O)Cc1cnc(C)nc1N")
"-2.1% (inactive)"
>>> test_value("CCCN(CCC)CCc1cccc2c1CC(=O)N2")
"29.8% (inactive)"
>>> test_value("CC(C)(Oc1ccc(C2CC2(Cl)Cl)cc1)C(=O)O (stereo not given)")
"-7.2% (inactive)"
>>> test_value("C[C@]12CC[C@@H]3c4ccc(O)cc4CC[C@H]3[C@@H]1CC[C@@H]2OC(=O)CCC1CCCC1")
"27% (inactive)"
>>> test_value("Cc1ncc(CO)c(CO)c1O")
"23.7% (inactive)"
>>> test_value("CC(CNC1CCCCC1)OC(=O)c1ccccc1 (stereo not given)")
"-11.7% (inactive)"
>>> test_value("O=P(O)(O)C(Cl)(Cl)P(=O)(O)O")
"26.6% (inactive)"
>>> test_value("FC(F)(F)C(F)(F)C(F)(F)C(F)(F)C(F)(F)C(F)(F)C(F)(F)C(F)(F)Br")
"-4.8% (inactive)"
>>> test_value("CCCCCCCCCCCCCCCCO")
"21.5% (inactive)"
>>> test_value("Cc1ccc(Nc2nccc(N(C)c3ccc4c(C)n(C)nc4c3)n2)cc1S(N)(=O)=O")
"69.3% (active)"
>>> test_value("CN1C[C@H]2c3ccccc3Oc3ccc(Cl)cc3[C@@H]2C1")
"80.6% (active)"
>>> test_value("CNCCc1ccccn1")
"-3.4% (inactive)"
>>> test_value("CN(Cc1ccc(C(C)(C)C)cc1)Cc1cccc2ccccc12")
"62.7% (active)"
>>> test_value("CCCCC(CC)COC(=O)C(C#N)=C(c1ccccc1)c1ccccc1 (stereo not given)")
"28.2% (inactive)"
>>> test_value("CNC(=O)c1cc(Oc2ccc(NC(=O)Nc3ccc(Cl)c(C(F)(F)F)c3)cc2)ccn1")
"166% (active)"
>>> test_value("C[C@@H]1CCC[C@H](C)N1")
"6.2% (inactive)"
>>> test_value("COC(=O)C1=C(C)NC(C)=C(C(=O)OCCN2CCN(C(c3ccccc3)c3ccccc3)CC2)C1c1cccc([N+](=O)[O-])c1 (stereo not given)")
"135% (active)"
>>> test_value("COc1ccccc1Oc1c(NS(=O)(=O)c2ccc(C(C)(C)C)cc2)nc(-c2ncccn2)nc1OCCO")
"81.4% (active)"
>>> test_value("OC[C@@H](O)[C@@H](O)[C@H](O)[C@H](O)CO")
"40.5% (inactive)"
>>> test_value("OCCOCCN1CCN(C(c2ccccc2)c2ccc(Cl)cc2)CC1 (stereo not given)")
"46.4% (inactive)"
>>> test_value("COc1ccccc1N1CCN(CCCCNC(=O)c2ccc(-c3ccc(C(C)=O)cc3)cc2)CC1")
"69.7% (active)"
>>> test_value("CCC(CC)(CC(=O)Nc1cccc(/C=C/c2nc(C3CCC3)cs2)c1)C(=O)O")
"41% (inactive)"
>>> test_value("CC(=O)[C@@]1(O)CC[C@H]2[C@@H]3CCC4=CC(=O)CC[C@]4(C)[C@H]3CC[C@@]21C")
"10.2% (inactive)"
>>> test_value("CC(O)CN(CCN(CC(C)O)CC(C)O)CC(C)O (stereo not given)")
"18.9% (inactive)"
>>> test_value("COc1cc(N)c(Cl)cc1C(=O)NC1CCN(CCCOc2ccc(F)cc2)CC1OC (stereo not given)")
"66.7% (active)"
>>> test_value("Cc1c(N)cccc1C(F)(F)F")
"1.3% (inactive)"
>>> test_value("Cc1nc2ccccc2n1Cc1ccc(Cl)cc1")
"74% (active)"
>>> test_value("COc1ccc(/C=N/NC(=O)c2ccncc2)cc1OC")
"-1% (inactive)"
>>> test_value("CN(c1nccc(=O)[nH]1)C1CCN(c2nc3ccccc3n2Cc2ccc(F)cc2)CC1")
"9.6% (inactive)"
>>> test_value("O=C(Oc1cccc2cccnc12)c1ccccc1")
"22.8% [at 2 µM] (inactive)"
>>> test_value("Cc1nc2c([nH]1)c(=O)n(C)c(=O)n2Cc1ccco1")
"11.9% (inactive)"
>>> test_value("COc1cc(C=O)ccc1O")
"49.1% (inactive)"
>>> test_value("CN1CCN(c2c(F)cc3c(=O)c(C(=O)O)cn4c3c2OCN4C)CC1")
"-15.8% (inactive)"
>>> test_value("N#Cc1c(N(CC(=O)O)CC(=O)O)sc(C(=O)O)c1CC(=O)O")
"-7.1% (inactive)"
>>> test_value("COc1cc(Cc2cnc(N)nc2N)cc(OC)c1OC")
"39.7% (inactive)"
>>> test_value("CNCCC(Oc1ccccc1OC)c1ccccc1 (stereo not given)")
"16.6% (inactive)"
>>> test_value("Nc1ccc2cc3ccc(N)cc3nc2c1")
"106% (active)"
